Data origin: patent US10793568B2

biological target: ligand binding domain of human FXR (Homo sapiens (Human), UniProt Q96RI1); assay: FXR ligand binding assay (LanthaScreen TR-FRET, SRC2-2 peptide recruitment); settings: -log EC50, concentration required to produce 50% activation
Sequence (Q96RI1 262-486): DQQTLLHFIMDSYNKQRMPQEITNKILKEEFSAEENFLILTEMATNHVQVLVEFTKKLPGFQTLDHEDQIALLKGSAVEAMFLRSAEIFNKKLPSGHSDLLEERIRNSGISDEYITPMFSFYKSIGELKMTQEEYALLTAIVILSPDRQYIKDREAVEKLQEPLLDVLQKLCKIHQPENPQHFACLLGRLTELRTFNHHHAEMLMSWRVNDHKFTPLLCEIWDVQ
This section presents molecules with their documented pEC50 values.
measurement_name: pEC50

smiles_data | observed
O=C(O)c1cc(OC(F)(F)F)c2nc(N3C[C@@H]4C[C@H]3C[C@H]4OCc3c(-c4ccccc4C(F)(F)F)noc3C3CC3)sc2c1 | 8.4
Cc1cccc(Cl)c1-c1noc(C2CC2)c1CO[C@@H]1C[C@@H]2C[C@H]1C(=O)N2c1ccc(C(=O)O)cc1 | 8.2
O=C(O)c1cc(F)c2nc(N3C[C@H]4C[C@@H]3C[C@@H]4OCc3c(-c4c(Cl)cccc4Cl)noc3C3CC3)sc2c1 | 7.8
CS(=O)(=O)NC(=O)CCc1ccc(N2C[C@@H]3C[C@H]2C[C@H]3OCc2c(-c3c(F)cccc3Cl)noc2C2CC2)c(F)c1 | 8.2
O=C(O)c1ccc(N2C[C@@H]3C[C@H]2C[C@H]3OCc2c(-c3c(Cl)cccc3Cl)noc2C2CC2)cn1 | 7.8
O=C(NS(=O)(=O)C1CC1)c1ccc(N2C[C@@H]3C[C@H]2C[C@H]3OCc2c(-c3c(Cl)cccc3Cl)noc2C2CC2)cc1 | 8.2
